System: MALME-3M melanoma
Assay: NCI tumour cell line growth inhibition, 48 h; in the data active means GI50 below about 0.43 µM; inactive means the rest
Possible outcomes: 1 for active, -1 for inactive

[
  {
    "Compound": "CN1CC(CNC(=O)OCc2ccccc2)CC2c3cccc4c3c(cn4C)CC21 (stereo not drawn)",
    "Answer Label": -1
  },
  {
    "Compound": "O=S(=O)(Nc1cc(Cl)ccc1Cl)c1ccc(-c2cnc(C3CC3)o2)cc1",
    "Answer Label": -1
  },
  {
    "Compound": "CC1=C([Te]c2ccc(O)cc2)C(=O)c2ccccc2C1=O",
    "Answer Label": -1
  },
  {
    "Compound": "O=C(NO)c1ccc(Cn2c(=O)n(-c3ccccc3F)c(=O)c3ccccc32)cc1",
    "Answer Label": -1
  },
  {
    "Compound": "O=C1OC(c2ccccc2)(c2cc(Br)c(O)c(Br)c2)c2ccccc21 (stereo not drawn)",
    "Answer Label": -1
  },
  {
    "Compound": "CCCC(=O)O.CCCC(=O)O.CCCC(=O)O.CCCC(=O)O.[Rh].[Rh]",
    "Answer Label": 1
  },
  {
    "Compound": "CN(C)CCOC(c1ccccc1)c1ccccc1",
    "Answer Label": -1
  },
  {
    "Compound": "COc1ccc(-c2cc(-c3ccc(O)cc3)nc3n[nH]c(N)c23)cc1",
    "Answer Label": -1
  }
]

====

System: LOX IMVI melanoma
Assay: NCI tumour cell line growth inhibition, 48 h; in the data active = GI50 below about 0.43 µM; inactive = the rest
Classes used: Y (active), N (inactive)

[
  {
    "Compound": "O=S(=O)(Nc1cc(Cl)ccc1Cl)c1ccc(-c2cnc(C3CC3)o2)cc1",
    "Answer Label": "N"
  },
  {
    "Compound": "O=C1OC(c2ccccc2)(c2cc(Br)c(O)c(Br)c2)c2ccccc21 (stereo not drawn)",
    "Answer Label": "N"
  },
  {
    "Compound": "COC(=O)[C@H](Cc1ccc(O)cc1)NC(=O)[C@@H](OC)[C@@H]1Cc2cc3cc(OC4CC(OC5CC(O)C(O)C(C)O5)C(O)C(C)O4)c(C)c(O)c3c(O)c2C(=O)[C@H]1OC1CC(OC2CC(OC3CC(C)(O)C(O)C(C)O3)C(O)C(C)O2)C(O)C(C)O1 (stereo partly drawn)",
    "Answer Label": "Y"
  },
  {
    "Compound": "C=C(C)[C@@H]1CC[C@]2(CO)CC[C@]3(C)[C@H](CC[C@@H]4[C@@]5(C)CCC(NCCc6ccc(O)cc6)C(C)(C)[C@@H]5CC[C@]43C)[C@@H]12 (stereo partly drawn)",
    "Answer Label": "N"
  },
  {
    "Compound": "Nc1c(C(=O)c2ccc(CCCN3CCOCC3)cc2)cnn1-c1ccc(F)cc1",
    "Answer Label": "N"
  },
  {
    "Compound": "Cc1cc2c(c3oc(C4(C)OC4C4OC4C)cc(=O)c13)C(=O)c1c(O)c(C3CC(C)(N(C)C)C(O)C(C)O3)cc(C3CC(N(C)C)C(O)C(C)O3)c1C2=O (stereo not drawn)",
    "Answer Label": "Y"
  },
  {
    "Compound": "CCCCCCc1nc2nc(Cl)c(Cl)nc2[nH]1",
    "Answer Label": "N"
  },
  {
    "Compound": "CCCCN(CCCC)CCCn1c(=O)c2c3ccccc3n(C)c2n2nnc(-c3ccccc3)c12",
    "Answer Label": "N"
  }
]
